The following compounds are listed with their measured GI50 values.
- Test system: A549
- run description: NCI tumour cell line growth inhibition, 48 h
Calls of active or inactive are those of the source. No stated cut-off is given here; in the data, active = GI50 up to about 1.1 µM and inactive = higher.
quantity: GI50

compound="CC1=CCC23C(C1)OC(Br)(C=CC2(C)O)C3(C)C (configuration not stated)" measured_value="> 100 µM (inactive)"
compound="COP(=O)(OC)C(N)Cc1c[nH]c2ccccc12 (configuration not stated)" measured_value="> 100 µM (inactive)"
compound=COC(=O)C(CCCCN)NC(=O)C(CCCCN)NC(=O)C(CCCCN)NC(C)=O.Cc1ccc(C(=O)Nc2ccc(S(=O)(=O)O)c3cc(S(=O)(=O)O)cc(S(=O)(=O)O)c23)cc1NC(=O)c1cccc(NC(=O)Nc2cccc(C(=O)Nc3cc(C(=O)Nc4ccc(S(=O)(=O)O)c5cc(S(=O)(=O)O)cc(S(=O)(=O)O)c45)ccc3C)c2)c1 measured_value="> 50 µM (inactive)"
compound=Cc1cccc(/N=C/C=C(\Cl)c2ccc3ccccc3c2)c1 measured_value="44.6 µM (inactive)"
compound="Oc1ccc2c(c1)OCC1(O)Cc3cc(O)c(O)cc3C21 (configuration not stated)" measured_value="> 57.7 µM (inactive)"
compound=Cc1nc(SCC(=O)Nc2ccc(Cl)cc2)c2sc(=S)n(-c3ccccc3)c2n1 measured_value="> 10 µM (inactive)"
compound="NC(Cc1cc(Br)c(O)c(Br)c1)C(=O)O (configuration not stated)" measured_value="> 100 µM (inactive)"

* * *

- Tested on: SW-620
- run description: NCI tumour cell line growth inhibition, 48 h
Calls of active or inactive are those of the source. Rule as the data show it: active = GI50 up to about 1.1 µM and inactive = higher.
Outcome codes: class 1 for active, class 0 for inactive

test_smiles=O=C(NCc1cccc(C(F)(F)F)c1)c1cc2sccc2nc1C(F)(F)F category="class 0"
test_smiles=CC(C)C(OC(=O)c1ccc(NCC2=CC(=O)C=CC2=O)cc1)C(C)C category="class 0"
test_smiles=c1ccc(C/C(=N\Nc2nc3ccccc3[nH]2)c2ccccn2)cc1 category="class 1"

* * *

- System: OVCAR-3
- run description: NCI tumour cell line growth inhibition, 48 h
Activity calls are given as the source filed them. Rule as the data show it: active = GI50 up to about 1.1 µM and inactive = higher.
quantity: GI50

molecule=Nc1ccccc1C(=O)N/N=C1\C(=O)Nc2ccccc21 study_system=OVCAR-3 measured_value="> 100 µM (inactive)"
molecule=N=C(N)N/N=C/c1c(-c2cc([N+](=O)[O-])c(Cl)cc2Cl)nc2n1CCS2 study_system=OVCAR-3 measured_value="8.04 µM (inactive)"
molecule=O=C(c1ccco1)N1CCCN(C(=O)c2ccco2)C1=S study_system=OVCAR-3 measured_value="> 100 µM (inactive)"
molecule=COc1ccc(/C=C2\CSC/C(=C\c3ccc(OC)c(OC)c3OC)C2=O)c(OC)c1OC study_system=OVCAR-3 measured_value="52.1 µM (inactive)"
molecule=COc1c(-c2ccccc2)oc2c(CP(=O)(OC)OC)cccc2c1=O study_system=OVCAR-3 measured_value="> 100 µM (inactive)"
molecule=CCn1c(C)nc([N+](=O)[O-])c1Sc1ncc[nH]1 study_system=OVCAR-3 measured_value="74.8 µM (inactive)"
molecule="C=C1C(=O)OC2C1C(OC(=O)/C(=C/C)COC(C)=O)CC1(CO1)C1C(OC(=O)/C(=C/C)CO)C=C(C)C21 (stereo not drawn)" study_system=OVCAR-3 measured_value="1.14 µM (inactive)"
molecule=COc1ccc2c(c1)O[C@@H]1c3ccc(OC)cc3OC[C@H]21 study_system=OVCAR-3 measured_value="34 µM (inactive)"

* * *

- System: SF-539
- run description: NCI tumour cell line growth inhibition, 48 h
Calls of active or inactive are those of the source. No stated cut-off is given here; in the data, active = GI50 up to about 1.1 µM and inactive = higher.
Outcome codes: 1 (active), 0 (inactive)

compound="c1ccc(COC2NCCN2Cc2ccccc2)cc1 (stereo not given)" category=0
compound=C(=N\NC1=NCCN1)/c1ccc(-c2cn3cc(/C=N/NC4=NCCN4)ccc3n2)cc1 category=0
compound=CC[C@]1(O)C(=O)OCc2c1cc1n(c2=O)Cc2cc3c(N)cccc3nc2-1 category=0
compound=O=C(CC(=O)n1nc(-c2ccccc2)c(/N=N/c2ccc([N+](=O)[O-])cc2)c1-c1ccccc1)Nc1ccc(Cl)cc1 category=0
compound=CN(CC(=O)O)c1ncc2c(n1)CCCC2 category=0
compound=CCNc1c(C(=O)N(CC)CC)c(=O)[nH]c2ncccc12 category=0
compound="O=C1N[C@H]2[C@H](O)[C@H](O)[C@@H](O)[C@H](O)[C@@H]2c2cc3c(c(O)c21)OCO3 [PANCRATISTATIN]" category=1
compound=Clc1ccc(/C(=C\c2ccccc2)Cn2ccnc2)cc1 category=0
compound=Cc1cc(C)c([O-])c(-[n+]2c(-c3ccccc3)cc(-c3ccccc3)cc2-c2ccccc2)c1 category=0
compound=CCON=C1C(C)(C)C(C)(C)C(C)(C)C1(C)C category=0
compound=CC(=O)N1N(c2ccc([N+](=O)[O-])cc2)C(=O)C1(C)C category=0
compound="O=C1CC[C@H](NC(=O)Cc2ccccc2)C(=O)N1 [ANTINEOPLASTON A10]" category=0
compound=Nc1ccccc1C(=O)N/N=C1\C(=O)Nc2ccccc21 category=0
compound="CN1C/C(=C\\c2cccs2)C2=NN(c3ccccc3)C(c3cccs3)C2C1 (stereo not given)" category=0
compound=CCn1c(C)nc([N+](=O)[O-])c1Sc1ncc[nH]1 category=0

* * *

- System: M14
- run description: NCI tumour cell line growth inhibition, 48 h
Active and inactive are the calls of the source. No stated cut-off is given here; in the data, active = GI50 up to about 1.1 µM and inactive = higher.
The following molecules are listed with their measured GI50 values.
quantity: GI50

molecule="O=C(CCCCCCCCC(=O)NN1C(=O)/C(=C\\c2ccc(O)c(O)c2)SC1c1ccc(Cl)cc1)NN1C(=O)/C(=C\\c2ccc(O)c(O)c2)SC1c1ccc(Cl)cc1 (stereo not given)" study_system=M14 quantity=GI50 measured_value="20.7 µM (inactive)"
molecule="OC1CCOc2ccccc21 (stereo not given)" study_system=M14 quantity=GI50 measured_value="> 100 µM (inactive)"
molecule="CCOC(=O)C1CCn2c(nc3c2c(=O)n(C)c(=O)n3C)S1 (stereo not given)" study_system=M14 quantity=GI50 measured_value="> 100 µM (inactive)"
molecule=COc1ccc(C=C2C(=O)NC(=S)NC2=O)c2ccccc12 study_system=M14 quantity=GI50 measured_value="45 µM (inactive)"
molecule=O=S(=O)(c1ccc(-c2nnc(-c3ccc(F)cc3)o2)cc1)c1ccc(-c2nnc(-c3ccc(F)cc3)o2)cc1 study_system=M14 quantity=GI50 measured_value="> 100 µM (inactive)"

* * *

- Tested on: MCF7
- run description: NCI tumour cell line growth inhibition, 48 h
Calls of active or inactive are those of the source. Cut-off read from the data, not from the text of the source: active = GI50 up to about 1.1 µM and inactive = higher. Starred links: 1 amine or outer side, 2 acyl side, 3 side chain; linkers in the order of their positions; H or OH if unused. Non-standard residues stand in square brackets, D forms with d. Residues, ends and D or L forms follow the SMILES beside them. X35 = C=CCC(O[*:1])C(=O)[*:2]; NMeV = CN[CH](C(=O)O)C(C)C; NMeA = CN[CH](C)C(=O)O; βAla = NCCC(=O)O
The following molecules are listed with their measured GI50 values.
quantity: GI50

molecule=Cc1[nH]c2ncn(Nc3ccccc3)c(=N)c2c1Cc1ccccc1 measured_value="5.45 µM (inactive)"
molecule="COC(=O)[C@@H]1C=C[C@H](OC2OC(COC(C)=O)C(OC(C)=O)C(OC(C)=O)C2OC(C)=O)n2c(=O)n(-c3ccccc3)c(=O)n21 (stereo partly specified)" measured_value="2.35 µM (inactive)"
molecule="Cc1ccc(OCC2OC(n3cnc4c(Cl)nc(N)nc43)CC2Oc2ccc(C)cc2)cc1 (stereo unspecified)" measured_value="2.75 µM (inactive)"
molecule="C=CCC1OC(=O)CCNC(=O)C(C)N(C)C(=O)C(C(C)C)N(C)C(=O)C(C(C)CC)NC(=O)C2CCCN2C1=O (stereo unspecified) (cyclo([X35]PI[NMeV][NMeA][βAla]); configuration not given here)" measured_value="> 100 µM (inactive)"
molecule=C=CCN1C(=O)/C(=C/c2ccccc2)NC1=S measured_value="> 100 µM (inactive)"
molecule="Cc1cn(C2CC(OC(=O)c3ccc(Cl)cc3)C(COC(=O)c3ccc(Cl)cc3)O2)c(=O)[nH]c1=O (stereo unspecified)" measured_value="> 100 µM (inactive)"
molecule="CC(=O)OCC1OC(n2c(-c3ccccc3)c(C)c(C)c(C#N)c2=S)C(OC(C)=O)C(OC(C)=O)C1OC(C)=O (stereo unspecified)" measured_value="> 50 µM (inactive)"
molecule=COc1ccccc1C(=O)c1c(NCc2ccccc2)c(=O)c1=O measured_value="0.0254 µM (active)"
molecule=COc1c(-c2ccccc2)oc2c(CP(=O)(OC)OC)cccc2c1=O measured_value="> 100 µM (inactive)"
molecule=CCOC(=O)C(=CNC(=S)Nc1c(CC)cccc1CC)C(=O)OCC measured_value="> 100 µM (inactive)"
molecule="CCCCCCCCC/C=C1\\CCC(CN2CCOCC2)C1=O (stereo unspecified)" measured_value="1.03 µM (active)"

These entries and their values trace back to ChEMBL document CHEMBL1201862.
